# solubility kinetic annotations
experiment: physchem; conditions: phosphate buffered saline, pH 7.4
Please reply with the bare figure in µg/mL and do not write the unit itself.

Here are 8 molecules together with their reported answers.
{"molecule": "CC(=O)Nc1ccc(C(=O)NCC2CCOCC2)cc1OCc1ccccc1", "solubility kinetic / µg/mL": 174}
{"molecule": "CC(=O)Nc1ccc(C(=O)N[C@H]2CC[C@H](O)CC2)cc1OCc1ccccc1", "solubility kinetic / µg/mL": 174}
{"molecule": "CC(=O)Nc1ccc(C(=O)NCCCN)cc1OCc1ccc(Cl)cc1", "solubility kinetic / µg/mL": 108}
{"molecule": "CC(=O)Nc1ccc(C(=O)NCCCN)cc1OCc1ccccc1Cl", "solubility kinetic / µg/mL": 124}
{"molecule": "CC(=O)Nc1ccc(C(=O)NC2CCOCC2)cc1OCc1ccccc1", "solubility kinetic / µg/mL": 155}
{"molecule": "CC(=O)Nc1ccc(C(=O)NCCCN)cc1OCc1ccccn1", "solubility kinetic / µg/mL": 80}
{"molecule": "CC(=O)Nc1c(F)cc(C(=O)N[C@H]2CC[C@H](O)CC2)cc1O[C@@H](C)c1ccccc1 [GSK046]", "solubility kinetic / µg/mL": 91}
{"molecule": "CC(=O)Nc1ccc(C(=O)NCCCN)cc1OCc1ccc(C(C)C)cc1", "solubility kinetic / µg/mL": 114}

Q: Specify reported solubility kinetic for the molecule shown: `CCNC(=O)c1cc(OCc2ccccc2)c(NC(C)=O)cc1F`
Ans: 159

Q: Kindly indicate its recorded solubility kinetic. Item: `CC(=O)Nc1ccc(C(=O)NCCCN)cc1OCc1ccncc1`
Ans: 112

Q: Find the measured solubility kinetic of `CC(=O)Nc1ccc(C(=O)NCCC2CCOCC2)cc1OCc1ccccc1` and report it.
Ans: 200

Q: Entry `CC(=O)Nc1ccc(C(=O)NC2CCOCC2)cc1O[C@@H](C)c1ccccc1` needs its solubility kinetic filled in; supply it.
Ans: 215

Q: Tell us which solubility kinetic value is on record for `CC(=O)Nc1ccc(C(=O)NC2CCOCC2)cc1O[C@H](C)c1ccccc1`
Ans: 159

Q: Annotate the molecule `CC(=O)Nc1ccccc1OCc1ccccc1` with its measured solubility kinetic.
Ans: 113

Q: Annotate the molecule `CC(=O)Nc1ccc(C(=O)NCCCN)cc1OCc1cccnc1` with its measured solubility kinetic.
Ans: 130

###

molecular target: Bromodomain-containing protein 2 (Homo sapiens, UniProt P25440, Y113A); assay: Displacement of Alexa Fluor 647 labelled ligand from 6His-Thr tagged BRD2 BD2/BD1 Y113A mutant (1 to 473 residues) (unknown origin) measured after 30 mins by TR-FRET assay
Sequence (P25440 whole entry Y113A, the tested form may be a part): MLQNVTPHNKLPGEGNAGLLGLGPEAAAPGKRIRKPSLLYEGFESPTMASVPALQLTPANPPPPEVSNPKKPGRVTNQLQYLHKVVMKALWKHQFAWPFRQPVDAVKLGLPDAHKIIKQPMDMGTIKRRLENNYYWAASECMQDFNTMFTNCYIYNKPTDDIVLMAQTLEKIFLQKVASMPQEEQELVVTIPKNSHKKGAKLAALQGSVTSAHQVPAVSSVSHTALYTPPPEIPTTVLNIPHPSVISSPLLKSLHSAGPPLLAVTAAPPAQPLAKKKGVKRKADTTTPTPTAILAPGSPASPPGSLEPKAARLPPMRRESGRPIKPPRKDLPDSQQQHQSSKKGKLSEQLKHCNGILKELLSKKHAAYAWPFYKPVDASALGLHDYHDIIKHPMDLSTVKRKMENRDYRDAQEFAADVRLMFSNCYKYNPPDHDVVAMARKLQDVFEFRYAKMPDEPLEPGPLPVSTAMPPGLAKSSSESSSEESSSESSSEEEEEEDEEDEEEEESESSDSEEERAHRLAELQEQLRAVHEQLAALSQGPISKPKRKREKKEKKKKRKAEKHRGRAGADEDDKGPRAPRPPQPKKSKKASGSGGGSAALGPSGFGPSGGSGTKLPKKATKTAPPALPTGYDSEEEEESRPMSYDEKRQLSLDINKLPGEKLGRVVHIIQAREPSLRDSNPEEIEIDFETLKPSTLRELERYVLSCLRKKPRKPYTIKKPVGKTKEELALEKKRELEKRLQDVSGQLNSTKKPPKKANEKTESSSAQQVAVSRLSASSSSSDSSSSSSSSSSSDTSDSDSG
observed-property: IC50 (nM)
Unit nM implied. Number only.

Q: Give recorded IC50. CC(=O)Nc1c(F)cc(C(=O)N[C@H]2CC[C@H](O)CC2)cc1O[C@@H](C)c1ccccc1 [GSK046]
Ans: 251

###

experiment: in vitro; details: PAMPA, pH 7.4
observed-property: Papp (×10⁻⁶ cm/s)
Return type: number; implicit unit ×10⁻⁶ cm/s.

{"molecule": "CC(=O)Nc1ccc(C(=O)NCC2CCNCC2)cc1OCc1ccccc1", "Papp / ×10⁻⁶ cm/s": 17}
{"molecule": "CC(=O)Nc1ccc(C(=O)NCCCO)cc1OCc1ccccc1", "Papp / ×10⁻⁶ cm/s": 9.4}
{"molecule": "CC(=O)Nc1ccc(C(=O)NCCCN)cc1OCc1ccc(C(C)C)cc1", "Papp / ×10⁻⁶ cm/s": 0.77}
{"molecule": "CC(=O)Nc1ccccc1OCc1ccccc1", "Papp / ×10⁻⁶ cm/s": 78}
{"molecule": "CC(=O)Nc1ccc(C(=O)NCCC2CCOCC2)cc1OCc1ccccc1", "Papp / ×10⁻⁶ cm/s": 10.4}
{"molecule": "CCNC(=O)c1cc(F)c(NC(C)=O)c(OCc2ccccc2)c1", "Papp / ×10⁻⁶ cm/s": 11}
{"molecule": "CC(=O)Nc1ccc(C(=O)NCCCN)cc1OCc1cccc(Cl)c1", "Papp / ×10⁻⁶ cm/s": 1.1}
{"molecule": "CC(=O)Nc1ccc(C(=O)NCCCN)cc1OCc1ccccc1Cl", "Papp / ×10⁻⁶ cm/s": 1.5}

Q: Using known records, supply Papp for `CC(=O)Nc1ccc(C(=O)NCCc2cnc[nH]2)cc1OCc1ccccc1`
Ans: 0.8

Q: Give reported Papp value for `CC(=O)Nc1ccc(C(=O)NC2CCOCC2)cc1O[C@@H](C)c1ccccc1`
Ans: 34

Q: Using known records, supply Papp for `CC(=O)Nc1ccc(C(=O)N[C@H]2CC[C@H](O)CC2)cc1O[C@@H](C)c1ccccc1`
Ans: 9.3

Q: Give recorded Papp. `CCNC(=O)c1cc(OCc2ccccc2)c(NC(C)=O)cc1F`
Ans: 67

Q: State its Papp: `CCNC(=O)c1ccc(NC(C)=O)c(OCc2ccccc2)c1F`
Ans: 46

Q: Please give measured Papp of the following entry: `CC(=O)Nc1ccc(C(=O)NCCO)cc1OCc1ccccc1`
Ans: 6.8

Q: Supply recorded Papp for `CC(=O)Nc1ccc(C(=O)NCCCN)cc1OCc1ccncc1` here.
Ans: 0.3

Q: Identify measured Papp corresponding to `CC(=O)Nc1ccc(C(=O)NCCCN)cc1OCc1ccc(C)cc1`
Ans: 0.65

Q: // fetch Papp given entry `CC(=O)Nc1ccc(C(=O)N[C@H]2CC[C@H](O)CC2)cc1OCc1ccccc1`
Ans: 7.9

Q: Annotate the molecule `CCNC(=O)c1ccc(NC(C)=O)c(OCc2ccccc2)c1` with its measured Papp.
Ans: 32

Q: Quickly give me recorded Papp for `CC(=O)Nc1ccc(C(=O)NC2CCOCC2)cc1OCc1ccccc1`
Ans: 19

###

biological target: Bromodomain-containing protein 4 (Homo sapiens, UniProt O60885, Y97A)
pIC50: −log10 of the molar value.
pIC50 vs 6: at or above is condition met, below is condition not met.

// known answers, use as guide
{"molecule": "CC(=O)Nc1ccc(C(=O)NCCCN)cc1OCc1ccc(Cl)cc1", "category-label": "condition not met"}
{"molecule": "CC(=O)Nc1ccc(C(=O)NC2CCOCC2)cc1O[C@@H](C)c1ccccc1", "category-label": "condition met"}
{"molecule": "CC(=O)Nc1ccc(C(=O)N[C@H]2CC[C@H](O)CC2)cc1O[C@@H](C)c1ccccc1", "category-label": "condition met"}
{"molecule": "CCNC(=O)c1ccc(NC(C)=O)c(OCc2ccccc2)c1F", "category-label": "condition not met"}
{"molecule": "CC(=O)Nc1ccc(C(=O)NCCCN)cc1OCc1ccccc1Cl", "category-label": "condition not met"}
{"molecule": "COc1ccc(COc2cc(C(=O)NCCCN)ccc2NC(C)=O)cc1", "category-label": "condition not met"}
{"molecule": "CC(=O)Nc1ccc(C(=O)NCCCN)cc1OC(C)c1ccccc1 (racemic)", "category-label": "condition met"}
{"molecule": "CC(=O)Nc1ccc(C(=O)NC2CCOCC2)cc1OCc1ccccc1", "category-label": "condition not met"}

Q: Does pIC50 meet or surpass 6 for `CCNC(=O)c1ccc(NC(C)=O)c(OCc2ccccc2)c1` ?
Ans: condition not met

Q: Tell me whether pIC50 is at least 6 here: `CC(=O)Nc1ccc(C(=O)NCCC2CCOCC2)cc1OCc1ccccc1`
Ans: condition not met

###

settings: buffer, pH 7.4
Entries and their measured CHI follow.
Respond with the number and no other words.

Field: example entries. Status: answers known.
{"molecule": "CC(=O)Nc1ccc(C(=O)NCCCO)cc1OCc1ccccc1", "CHI": 2.4}
{"molecule": "CC(=O)Nc1ccc(C(=O)NCC2CCNCC2)cc1OCc1ccccc1", "CHI": 1.7}
{"molecule": "CC(=O)Nc1ccc(C(=O)NCCCN)cc1OCc1ccccc1", "CHI": 1.6}
{"molecule": "CC(=O)Nc1ccc(C(=O)NCCCN)cc1OCc1ccccn1", "CHI": 0.3}
{"molecule": "CC(=O)Nc1ccc(C(=O)NCCc2cnc[nH]2)cc1OCc1ccccc1", "CHI": 2.2}
{"molecule": "CC(=O)Nc1ccc(C(=O)NCCCN)cc1OC(C)c1ccccc1 (racemic)", "CHI": 1.7}
{"molecule": "CC(=O)Nc1ccc(C(=O)NC2CCOCC2)cc1O[C@H](C)c1ccccc1", "CHI": 3.8}
{"molecule": "CC(=O)Nc1ccc(C(=O)NCCCN)cc1OCc1ccc(C(N)=O)cc1", "CHI": 0}
{"molecule": "CC(=O)Nc1ccc(C(=O)NCC2CCOCC2)cc1OCc1ccccc1", "CHI": 3.5}
{"molecule": "CC(=O)Nc1ccc(C(=O)N[C@H]2CC[C@H](O)CC2)cc1OCc1ccccc1", "CHI": 2.7}

Q: State, in one line, measured CHI of `CCNC(=O)c1cc(F)c(NC(C)=O)c(OCc2ccccc2)c1`
Ans: 3.1

Q: # return recorded CHI for entry CC(=O)Nc1c(F)cc(C(=O)N[C@H]2CC[C@H](O)CC2)cc1O[C@@H](C)c1ccccc1 [GSK046]
Ans: 2.8

Q: Report measured CHI; entry is `CC(=O)Nc1ccc(C(=O)NCCCN)cc1OCc1ccccc1Cl`
Ans: 1.9
